System: LG0703-F498-PDC complex spheroid growth
measurement.protocol: Anticancer human tumor LG0703-F498-PDC patient-derived lung adenocarcinoma cell line growth inhibition [AhR]
condition.set: curve of first compound; second compound 0.316 µM
Source text: Multicellular complex tumor spheroid response to aryl hydrocarbon receptor antagonists in combination with a variety of drugs and investigational agents in selected tumor cell lines […] Compounds. […] If the clinical Cmax for an agent had not been determined, the highest concentration tested was 10 microM (Table 1). […]
Give measured pIC50 for each item. Keep answers brief.
Field pIC50 (float): negative decimal logarithm of the concentration in molar.

**Query** Which measured pIC50 value corresponds to CCc1c2c(nc3ccc(O)cc13)-c1cc3c(c(=O)n1C2)COC(=O)[C@]3(O)CC + Cc1ccccc1N=Nc1ccc(NC(=O)c2ccnn2C)c(C)c1 ?
**Result** 7.36

**Query** Another: COc1ccc([C@@H](O)c2cc(-c3ncnc4cc(N5CCOCC5)ccc34)c(F)cc2Cl)nn1 + CC(CO)NC(=O)c1cc(-c2ccc(Cl)cc2)nn(-c2cnn(C)c2)c1=O
**Result** 5.32

**Query** Another: NS(=O)(=O)OCC1CC(n2ccc3c(NC4CCc5ccccc54)ncnc32)CC1O (stereo not given) + CC(CO)NC(=O)c1cc(-c2ccc(Cl)cc2)nn(-c2cnn(C)c2)c1=O
**Result** 5.83

**Query** Another: COc1cc(Nc2ncc3c(n2)-c2ccc(Cl)cc2C(c2c(F)cccc2OC)=NC3)ccc1C(=O)O + CC(CO)NC(=O)c1cc(-c2ccc(Cl)cc2)nn(-c2cnn(C)c2)c1=O
**Result** 5.08

**Query** Another: O=C(C=Cc1cccc(S(=O)(=O)Nc2ccccc2)c1)NO + CC(CO)NC(=O)c1cc(-c2ccc(Cl)cc2)nn(-c2cnn(C)c2)c1=O
**Result** 6.20

**Query** Another: CC(C)CC(NC(=O)C(Cc1ccccc1)NC(=O)c1cnccn1)B(O)O (stereo not given) + Cc1cncc(-c2nc(NCCc3c[nH]c4ccccc34)c3ncn(C(C)C)c3n2)c1
**Result** 8.36

**Query** Another: Nc1ccccc1NC(=O)c1ccc(CNC(=O)OCc2cccnc2)cc1 + Cc1ccccc1N=Nc1ccc(NC(=O)c2ccnn2C)c(C)c1
**Result** 6.05

**Query** Another: O=C(C=Cc1cccc(S(=O)(=O)Nc2ccccc2)c1)NO + Cc1ccccc1N=Nc1ccc(NC(=O)c2ccnn2C)c(C)c1
**Result** 6.09

----------
System: LG0703-F498-PDC complex spheroid growth
measurement.protocol: Anticancer human tumor LG0703-F498-PDC cell line growth inhibition [AhR];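 further: luminescence taken as a proxy for viable cell amount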
condition.set: curve of first compound; second compound 0.316 µM
Give measured IC50 for each item. Keep answers brief.

**Query** Which measured IC50 value corresponds to CC1(C)CCC(CN2CCN(c3ccc(C(=O)NS(=O)(=O)c4ccc(NCC5CCOCC5)c([N+](=O)[O-])c4)c(Oc4cnc5[nH]ccc5c4)c3)CC2)=C(c2ccc(Cl)cc2)C1 + CC(CO)NC(=O)c1cc(-c2ccc(Cl)cc2)nn(-c2cnn(C)c2)c1=O ?
**Result** 5650 nM

**Query** Another: CC1(C)CCC(CN2CCN(c3ccc(C(=O)NS(=O)(=O)c4ccc(NCC5CCOCC5)c([N+](=O)[O-])c4)c(Oc4cnc5[nH]ccc5c4)c3)CC2)=C(c2ccc(Cl)cc2)C1 + Cc1ccccc1N=Nc1ccc(NC(=O)c2ccnn2C)c(C)c1
**Result** 6520 nM

**Query** Another: O=C(c1cc(Cc2n[nH]c(=O)c3ccccc23)ccc1F)N1CCN(C(=O)C2CC2)CC1 + CC(CO)NC(=O)c1cc(-c2ccc(Cl)cc2)nn(-c2cnn(C)c2)c1=O
**Result** > 10000 nM

**Query** Another: CC1COCCN1c1cc(-c2ccnn2C)c2ccnc(-c3ccn[nH]3)c2n1 (stereo unspecified) + Cc1cncc(-c2nc(NCCc3c[nH]c4ccccc34)c3ncn(C(C)C)c3n2)c1
**Result** 279 nM

**Query** Another: CCc1c2c(nc3ccc(O)cc13)-c1cc3c(c(=O)n1C2)COC(=O)[C@]3(O)CC + CC(CO)NC(=O)c1cc(-c2ccc(Cl)cc2)nn(-c2cnn(C)c2)c1=O
**Result** 24.4 nM

**Query** Another: COc1cc(Nc2ncc3c(n2)-c2ccc(Cl)cc2C(c2c(F)cccc2OC)=NC3)ccc1C(=O)O + Cc1ccccc1N=Nc1ccc(NC(=O)c2ccnn2C)c(C)c1
**Result** 5360 nM

**Query** Another: Nc1ccccc1NC(=O)c1ccc(CNC(=O)OCc2cccnc2)cc1 + CC(CO)NC(=O)c1cc(-c2ccc(Cl)cc2)nn(-c2cnn(C)c2)c1=O
**Result** 428 nM

**Query** Another: CC[C@@]1(O)C(=O)OCc2c1cc1n(c2=O)Cc2cc3c(CN(C)C)c(O)ccc3nc2-1 + Cc1ccccc1N=Nc1ccc(NC(=O)c2ccnn2C)c(C)c1
**Result** > 100 nM

**Query** Another: COc1cccc2c1C(=O)c1c(O)c3c(c(O)c1C2=O)CC(O)(C(=O)CO)CC3OC1CC(N)C(O)C(C)O1 (stereo unspecified) + CC(CO)NC(=O)c1cc(-c2ccc(Cl)cc2)nn(-c2cnn(C)c2)c1=O
**Result** 523 nM

**Query** Another: Cn1ncnc1C1c2n[nH]c(=O)c3cc(F)cc(c23)NC1c1ccc(F)cc1 (stereo unspecified) + Cc1cncc(-c2nc(NCCc3c[nH]c4ccccc34)c3ncn(C(C)C)c3n2)c1
**Result** > 100 nM

**Query** Another: Nc1ncn(C2CC(O)C(CO)S2)c(=O)n1 (stereo unspecified) + Cc1ccccc1N=Nc1ccc(NC(=O)c2ccnn2C)c(C)c1
**Result** > 300 nM

----------
Give measured viability, T/C for each item. Keep answers brief.
System: LG0703-F498-PDC complex spheroid growth
measurement.protocol: Anticancer human tumor LG0703-F498-PDC cell line growth inhibition [AhR];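 further: luminescence taken as a proxy for viable cell amount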;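 on viability, T/C: percent of DMSO vehicle control where 100% means growth equal to vehicle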
condition.set: second compound 3.16 µM; first compound 1 µM; stronger effect = lower value
Text: Multicellular complex tumor spheroid response to aryl hydrocarbon receptor antagonists in combination with a variety of drugs and investigational agents in selected tumor cell lines […] Compounds. […] If the clinical Cmax for an agent had not been determined, the highest concentration tested was 10 microM (Table 1). […]

**Query** Which measured viability, T/C value corresponds to Nc1ccccc1NC(=O)c1ccc(CNC(=O)OCc2cccnc2)cc1 + CC(CO)NC(=O)c1cc(-c2ccc(Cl)cc2)nn(-c2cnn(C)c2)c1=O ?
**Result** 19.7%

**Query** Another: CC1COCCN1c1cc(-c2ccnn2C)c2ccnc(-c3ccn[nH]3)c2n1 (stereo unspecified) + Cc1ccccc1N=Nc1ccc(NC(=O)c2ccnn2C)c(C)c1
**Result** 37%

**Query** Another: COc1cccc2c1C(=O)c1c(O)c3c(c(O)c1C2=O)CC(O)(C(=O)CO)CC3OC1CC(N)C(O)C(C)O1 (stereo unspecified) + Cc1cncc(-c2nc(NCCc3c[nH]c4ccccc34)c3ncn(C(C)C)c3n2)c1
**Result** 15.8%

**Query** Another: COc1cc(C2c3cc4c(cc3C(OC3OC5COC(C)OC5C(O)C3O)C3COC(=O)C23)OCO4)cc(OC)c1O (stereo unspecified) + CC(CO)NC(=O)c1cc(-c2ccc(Cl)cc2)nn(-c2cnn(C)c2)c1=O
**Result** 81.7%

**Query** Another: COc1cc(C2c3cc4c(cc3C(OC3OC5COC(C)OC5C(O)C3O)C3COC(=O)C23)OCO4)cc(OC)c1O (stereo unspecified) + Cc1ccccc1N=Nc1ccc(NC(=O)c2ccnn2C)c(C)c1
**Result** 80.2%

**Query** Another: O=C(C=Cc1cccc(S(=O)(=O)Nc2ccccc2)c1)NO + Cc1ccccc1N=Nc1ccc(NC(=O)c2ccnn2C)c(C)c1
**Result** 44.8%

----------
Give measured viability, T/C for each item. Keep answers brief.
System: LG0703-F498-PDC complex spheroid growth
measurement.protocol: Anticancer human tumor LG0703-F498-PDC cell line growth inhibition [AhR];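 further: luminescence taken as a proxy for viable cell amount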;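 on viability, T/C: percent of DMSO vehicle control where 100% means growth equal to vehicle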
condition.set: second compound 0.1 µM; first compound 10 µM; stronger effect = lower value
Description: Multicellular complex tumor spheroid response to aryl hydrocarbon receptor antagonists in combination with a variety of drugs and investigational agents in selected tumor cell lines […] Compounds. […] If the clinical Cmax for an agent had not been determined, the highest concentration tested was 10 microM (Table 1). […]

**Query** Which measured viability, T/C value corresponds to Nc1ccn(C2OC(CO)C(O)C2(F)F)c(=O)n1 (stereo unspecified) + Cc1ccccc1N=Nc1ccc(NC(=O)c2ccnn2C)c(C)c1 ?
**Result** 28.1%

**Query** Another: COc1cc(C2c3cc4c(cc3C(OC3OC5COC(C)OC5C(O)C3O)C3COC(=O)C23)OCO4)cc(OC)c1O (stereo unspecified) + Cc1ccccc1N=Nc1ccc(NC(=O)c2ccnn2C)c(C)c1
**Result** 72.1%

**Query** Another: NS(=O)(=O)OCC1CC(n2ccc3c(NC4CCc5ccccc54)ncnc32)CC1O (stereo unspecified) + CC(CO)NC(=O)c1cc(-c2ccc(Cl)cc2)nn(-c2cnn(C)c2)c1=O
**Result** 38.3%

**Query** Another: COc1cc(Nc2ncc3c(n2)-c2ccc(Cl)cc2C(c2c(F)cccc2OC)=NC3)ccc1C(=O)O + Cc1ccccc1N=Nc1ccc(NC(=O)c2ccnn2C)c(C)c1
**Result** 45.3%

**Query** Another: COc1cccc2c1C(=O)c1c(O)c3c(c(O)c1C2=O)CC(O)(C(=O)CO)CC3OC1CC(N)C(O)C(C)O1 (stereo unspecified) + Cc1cncc(-c2nc(NCCc3c[nH]c4ccccc34)c3ncn(C(C)C)c3n2)c1
**Result** 0.77%

**Query** Another: Nc1ccccc1NC(=O)c1ccc(CNC(=O)OCc2cccnc2)cc1 + Cc1ccccc1N=Nc1ccc(NC(=O)c2ccnn2C)c(C)c1
**Result** 1.74%
